Measured Percent decrease in TMV-lesion diameter accompanies every entry in the list below.
System: tobacco mosaic virus (TMV)
METHOD SUMMARY: Resistance measurement: TMV lesion diameter after spray application
Format: in vivo, Nicotiana tabacum (Xanthi nc)
CONDITION NOTES: percent reduction in the diameter of TMV lesions
Experimental: Tobacco (Nicotiana tabacum) plants (Xanthi nc) were grown in Promix PGX at 25 C and a 16/8 h photoperiod. Plants were fed a 1 g/L concentration of 20-20-20 (N-P-K fertilizer) twice a week. The Xanthi-nc variety carries the N-gene for resistance to TMV. […] After spraying, one leaf per plant was inoculated with 1.0 ug TMV (U1; vulgare strain) at the times indicated. Six days post-inoculation, leaves were removed and the diameters of 20 necrotic lesions were measured per leaf. […]
Please answer in the form of a number followed by its unit of measurement.

Using the record for O=C(O)c1c(O)c(Cl)cc(Cl)c1Cl , report its Percent decrease in TMV-lesion diameter.
45.1%

Continue with Nc1ccc(C(=O)O)c(O)c1
22.9%

Continue with COc1cccc(C(=O)O)c1O
8.9%

Continue with O=C(O)c1cc(F)cc(Cl)c1O
34%

Continue with COc1ccc(O)c(C(=O)O)c1
9.7%

Provenance of the data: patent US20050050587A1
